Data credit: PubChem BioAssay (NCI)

Could you please report measured growth for the items listed next?
tested on: HS 578T breast; experiment: NCI-60 one-dose screen, 48 h (100 = growth as untreated, 0 = no growth, -100 = all killed); conditions: 10 µM
Compounds without any hit were thinned out: in the full panel of roughly 83,000, 20% have a hit.
Respond with the bare value in %.

Which growth value belongs to CCCCN(CCCC)C(=O)[C@H](CC)[C@@H]1CC[C@@H](C)[C@@H]([C@H](C)[C@@H](O)[C@@H](C)C(=O)[C@H](CC)C2O[C@]3(C=C[C@@H](O)[C@]4(CC[C@@](C)([C@H]5CC[C@](O)(CC)[C@H](C)O5)O4)O3)[C@H](C)C[C@@H]2C)O1 (stereo partly drawn) ?
14.5

Which growth value belongs to `O=C(Nc1ccc(NS(=O)(=O)c2ccc(F)cc2)cc1)C12CC3CC(CC(C3)C1)C2` ?
94.4

Which growth value belongs to `Cc1ccc(S(=O)(=O)N/N=C2\CCCc3ccccc32)cc1` ?
95

Which growth value belongs to COC(=O)C1OC1c1cc([N+](=O)[O-])ccc1OC (stereo not drawn) ?
111

Which growth value belongs to `CNC(=O)c1cc(Oc2ccc3c(c2)sc2nc(-c4ccc(NC(=O)Nc5ccc(Cl)c(C(F)(F)F)c5)cc4)cn23)ccn1` ?
71.7

Which growth value belongs to `COc1cc(-c2nn(-c3cccc(NC(=O)CCNc4ccc(N5CCOCC5)cc4)c3)cc2-c2ccncc2)ccc1Cl` ?
29.7

Which growth value belongs to `COc1cc(NC(=O)C2=C(N3CCOCC3)/C(=C/c3ccc(Cl)cc3)CC2)cc(OC)c1OC` ?
95.2

Which growth value belongs to `CCOC(=O)CC(S(=O)(=O)c1ccccc1)S(=O)(=O)c1ccccc1` ?
105

Which growth value belongs to `COc1ccc(C(=O)N/N=C/c2cc(C(F)(F)F)ccc2Cl)cc1` ?
92.6

Which growth value belongs to COC(=O)C1(O)NC(=C(C#N)C#N)C(C#N)=C1C(=O)c1ccc(OC)c(OC)c1 (stereo not drawn) ?
95.9

Which growth value belongs to Nc1ncnc2c1ncn2C1(CO)OCC(O)C(O)C1O (stereo not drawn) ?
104

Which growth value belongs to `COc1cc(/C=C/c2cc(/C=C/c3ccc(O)c(OC)c3)n(C(=O)Nc3ccc(C)cc3)n2)ccc1O` ?
-16

Which growth value belongs to CCOC(=O)C1=CSC2=NC3=C(CCC/C3=C\c3ccc(Cl)cc3)C(c3ccc(Cl)cc3)N12 (stereo not drawn) ?
91.9

Which growth value belongs to CC(C)[N+]1(C)C2CC[C@@H]1CC(OC(=O)C(CO)c1ccccc1)C2 (stereo partly drawn) ?
104

Which growth value belongs to CCCN1CN2C(=O)N3CN(CCC)CN4C(=S)N(C1)C2C34 (stereo not drawn) ?
113

Which growth value belongs to COc1ccc(/C=C2\CCCC3=C2NC(N)=NC3c2ccc(OC)c(OC)c2)cc1OC (stereo not drawn) ?
87.9

Which growth value belongs to `CN(C)CCCN1c2ccccc2CCc2ccc(Cl)cc21` ?
68.7

Which growth value belongs to CCN(CC)c1ccc(/C=C2\SC(=O)C(Nc3nnc(-c4cccnc4SCc4ccccc4)o3)C2=O)cc1 (stereo not drawn) ?
26.6

Which growth value belongs to CC(C)=CCC/C(C)=C/CC/C(C)=C/CC/C=C(\C)CC/C=C(\C)CCC(=O)Nc1ccn(C2OC(CO)C(O)C2(F)F)c(=O)n1 (stereo not drawn) ?
42.5

Which growth value belongs to Cc1c(O)c(=O)ccn1C1CCC(CC2CCC(n3ccc(=O)c(O)c3C)CC2)CC1 (stereo not drawn) ?
21.9

Which growth value belongs to `c1cncc(-c2csc(-c3c[nH]c4ccccc34)n2)c1` ?
90.6

Which growth value belongs to `O=C(O)c1ccc(-n2cc(CNc3ccc(Cl)cc3)c(-c3ccccc3)n2)cc1` ?
85

Which growth value belongs to `C=CCSC(CC)(CC)C(=O)NC` ?
106

Which growth value belongs to CC1=CC2C(C(O)CC3(C)C2CC(C)C32OCOC23COCO3)C2(C)C/C(=C/O)C(=O)C=C12 (stereo not drawn) ?
83.4

Which growth value belongs to `O=S(=O)(Oc1ccc(-c2ccc3sccc3c2)cc1)c1ccc(F)cc1` ?
112

Which growth value belongs to Cc1cc(CC(C)CC(C)(C)C)n(O)c(=O)c1 (stereo not drawn) (tested in a mixture with another compound) ?
62.8

Which growth value belongs to `Cc1ccc(N=Nc2ccccc2)cc1` ?
103

Which growth value belongs to `COc1cccc2ccc(CC(O)(c3ccccc3)c3ccccc3)nc12` ?
103

Which growth value belongs to `O=C(CC(CC(=O)c1ccccc1)c1ccccc1O)c1ccccc1` ?
86.6

Which growth value belongs to `CN1C(C(=O)Nc2ccccn2)=C(O)c2sc(Cl)cc2S1(=O)=O` ?
98.5

Which growth value belongs to `Cc1ccc(NC(=S)NNC(=S)Nc2ccc(C)cc2)cc1` ?
78.4

Which growth value belongs to `C=C/C(C)=C/C[C@]1(C)[C@H](C)[C@@H](OC(=O)CCC)[C@H](O)[C@@]23C(=C[C@H](OC)C[C@@H]12)[C@@H](OC(=O)CCC)O[C@H]3OC(C)=O` ?
-31.5

Which growth value belongs to COc1cc(C2CC(c3ccccc3)=NN2C(C)=O)cc(OC)c1OC (stereo not drawn) ?
48.4

Which growth value belongs to `Cc1ccc(C(C)C)c(O)c1NC(=O)OC(C)C` ?
95.8

Which growth value belongs to `Cn1c2ccccc2c2c3[nH][nH]c(=O)c3c3c4ccccc4[nH]c3c21` ?
41

Which growth value belongs to `COC(=O)CC[C@@H](C)[C@H]1CC[C@H]2[C@@H]3CC[C@@H]4C[C@H](O)CC[C@]4(C)[C@H]3C[C@H](O)[C@]12C` ?
114

Which growth value belongs to `N#Cc1c(-c2ccc(Cl)cc2)n(O)c2ccccc12` ?
-21.6

Which growth value belongs to CC(=O)[C@@]12O[C@](C)(c3ccccc3)O[C@@H]1CC1C3CCC4=CC(=O)CC[C@]4(C)C3CC[C@@]12C (stereo partly drawn) ?
86.2

---

system: HT29 colon; assay: NCI-60 one-dose screen, 48 h; details: 10 µM
About 83,000 compounds went through this panel and 20% of them were active in at least one assay; those are over-represented in the sample as a whole. The source made the active and inactive calls. The calls were made as follows: active = growth percent below 10; inactive = the rest.
Hi there, use one of these labels in your reply, thanks! active, inactive

Hello, I am checking results. What call was entered for `CCOc1ccccc1/C=N\N=C(\N)N/N=C/c1ccccc1OCC` ?
inactive

Hello, I am checking results. What call was entered for `COc1cc(/C=C/c2cc(/C=C/c3ccc(O)c(OC)c3)nc(N)n2)ccc1O` ?
active

Hello, I am checking results. What call was entered for `CN1CCc2c(sc3nc4n(-c5ccc(Cl)cc5)cnn4c(=O)c23)C1` ?
inactive

Hello, I am checking results. What call was entered for `NC(N)=N/N=C(\N=Nc1ccccc1)c1ccc(Cl)cc1` ?
inactive

Hello, I am checking results. What call was entered for `CCOC(=O)c1sc2ncnc(Nc3ccc4c(cnn4C(=O)Nc4ccccc4)c3)c2c1C` ?
inactive

---

system: NCI-H322M lung; assay: NCI-60 one-dose screen, 48 h (100 = growth as untreated, 0 = no growth, -100 = all killed); details: 10 µM
The panel holds about 83,000 compounds, 20% with a hit somewhere; the sample as a whole holds those more often.
recorded_metric: growth (%)
Respond with the bare value in %.

I'm curious: which growth was measured for `COc1cc2nc(SCC(=O)Nc3cc(OC)c(OC)c(OC)c3)n(Cc3ccccc3)c(=O)c2cc1OC` tested on NCI-H322M lung?
65.2

I'm curious: which growth was measured for `c1ccc(CCCCc2ccc3ccccc3n2)cc1` tested on NCI-H322M lung?
99.7

I'm curious: which growth was measured for `COc1ccc2nc3cc(Cl)ccc3c(NCCCNCCO)c2c1` tested on NCI-H322M lung?
-22.6

I'm curious: which growth was measured for `CCCCC1(O)CCCCC1` tested on NCI-H322M lung?
105

I'm curious: which growth was measured for `C[C@]12CC[C@@H]3c4ccc(OS(=O)(=O)O)cc4CC[C@H]3[C@@H]1CC[C@@H]2NS(=O)(=O)c1ccc(-c2ccccc2)cc1` tested on NCI-H322M lung?
86.9

I'm curious: which growth was measured for NC(N)=N/N=C(\c1ccccc1)C(O)c1ccccc1 (stereo not drawn) tested on NCI-H322M lung?
101

I'm curious: which growth was measured for `Cc1ccc(-c2c3c(N)nc(-c4cccnc4)nc3nc3c2c(C)nn3-c2ccccc2)cc1` tested on NCI-H322M lung?
76.8

I'm curious: which growth was measured for `N=C1S/C(=C/c2ccc(-c3ccc4c(c3)C(=O)NC4=O)o2)C(=O)N1c1ccc(Br)cc1` tested on NCI-H322M lung?
43

I'm curious: which growth was measured for `CSc1ccc(-c2cc(-c3ccc(NC(=O)CCCN4CCCC4)cc3)nc(-c3ccc(NC(=O)CCCN4CCCC4)cc3)c2)cc1` tested on NCI-H322M lung?
94.8

I'm curious: which growth was measured for `IC(I)I` tested on NCI-H322M lung?
102

I'm curious: which growth was measured for `O=C1/C(=C/c2cccc(F)c2)Cc2ccccc21` tested on NCI-H322M lung?
94.4

I'm curious: which growth was measured for `COc1ccc(Cl)cc1Nc1nc(C(F)(F)F)ccc1C(=O)N/N=C/c1cc(OC)c(OC)c(OC)c1` tested on NCI-H322M lung?
8.92

I'm curious: which growth was measured for `CC(C)(C)c1ccc(S(=O)(=O)N[C@H]2CC[C@H]3[C@@H]4CCc5cc(O)c([N+](=O)[O-])cc5[C@H]4CC[C@]23C)cc1` tested on NCI-H322M lung?
77.1

I'm curious: which growth was measured for `CCOc1ccccc1/C=N\N=C\c1ccccc1O` tested on NCI-H322M lung?
93.8

I'm curious: which growth was measured for `CC1(C)N=C(N)N=C(N)N1c1cccc(C#N)c1` tested on NCI-H322M lung?
64.6

I'm curious: which growth was measured for OC(CNc1ccnc2cc(Cl)ccc12)CNC1CCCCC1 (stereo not drawn) tested on NCI-H322M lung?
74.7

I'm curious: which growth was measured for CC(=O)OC1C=CC(OC(C)=O)O1 (stereo not drawn) tested on NCI-H322M lung?
101

I'm curious: which growth was measured for `CN(C)c1ccc(/C=N/NC(=O)c2cccc3ccccc23)c(Cl)c1` tested on NCI-H322M lung?
57.6

I'm curious: which growth was measured for CCN(CC)CCCC(Nc1c2ccc(Cl)cc2nc2ccc(OC)cc12)c1ccc(F)cc1 (stereo not drawn) tested on NCI-H322M lung?
14.7

I'm curious: which growth was measured for `CCCCC/C=C/C/C=C/CCCCCCCC1=NC(C)(C)CN1C(C)C` tested on NCI-H322M lung?
108

I'm curious: which growth was measured for COc1cc(CNC(=O)C2CSC3(C)c4ccccc4C(=O)N23)cc(OC)c1OC (stereo not drawn) tested on NCI-H322M lung?
99.7

I'm curious: which growth was measured for `O=C(CCl)Oc1ccc(OC(=O)CCl)cc1` tested on NCI-H322M lung?
101

I'm curious: which growth was measured for `O=C(CI)OCC(COC(=O)CI)OC(=O)CI` tested on NCI-H322M lung?
112

I'm curious: which growth was measured for CCCC1(CN2c3ccccc3Sc3ccc(Cl)cc32)CCN(CC)C1 (stereo not drawn) tested on NCI-H322M lung?
25.5

I'm curious: which growth was measured for `Cc1cc(C)nc(NS(=O)(=O)c2ccc(Nc3nc4nc(NCc5ccccc5)nc(-c5ccc(O)cc5)c4c(=O)[nH]3)cc2)n1` tested on NCI-H322M lung?
10.2

I'm curious: which growth was measured for CCC(c1ccc(OC)cc1)C(CC)c1ccc(O)c(CN2CCN(C)CC2)c1 (stereo not drawn) tested on NCI-H322M lung?
76.1

I'm curious: which growth was measured for `Cc1ccc(-n2nnnc2N)c(C)c1` tested on NCI-H322M lung?
121

I'm curious: which growth was measured for `NC(N)=N/N=C(\N=Nc1ccccc1)c1ccc(Cl)cc1` tested on NCI-H322M lung?
64.8
